Attribution: patent US20210244712A1

System: TOV-112D
ASSAY_PROTOCOL: Cell proliferation assay
Format: cell-based
DETAILS: Homo sapiens, TOV112D; Table 7b; TOV-112D; cells printed in nM; read-out: Cell Proliferation Assay (EC50)

| COMPOUND | EC50 / nM |
| --- | --- |
| Cc1ccccc1C(=O)Nc1nc(NC(=O)c2ccc(CNC(C)C)cc2)nn1-c1ccc(OC(F)(F)F)cc1 [Compound 12x] | 183 |
| Cc1ccccc1C(=O)Nc1nc(NC(=O)c2cccc(CNC(C)C)c2)nn1-c1ccc(OC(F)(F)F)cc1 [Compound 13x] | 231 |
| Cc1ccccc1C(=O)Nc1nc(NC(=O)c2ccc(CNC(=O)[C@@H]3CCCN3)cc2)nn1-c1ccc(OC(F)(F)F)cc1 [Compound 16x] | 659 |
| CCCCCCC(=O)N1CCN(c2ccc(-n3nc(-c4ccccc4O)nc3NC(=O)c3ccccc3C)cc2)CC1 | 124 |
| Cc1cccnc1-c1nc(NC(=O)c2ccc(CN)cc2)n(-c2ccc(OC(F)(F)F)cc2)n1 | 114 |
| CCCCCCC(=O)NCc1ccc(C(=O)Nc2nc(-c3ncccc3C)nn2-c2ccc(OC(F)(F)F)cc2)cc1 | 349 |
